Quick reference: pEC50 of the listed items.
measured on: mutant HIV reverse transcriptases (Human immunodeficiency virus type 1, UniProt P12497, Y775L, cells depend on it)
Format: cell-based
pEC50: −log10 of the molar value.
value type: pEC50

>>> reported_value("CCc1ccc(-n2c(Br)nnc2SCC(=O)Nc2ccc(C(=O)NCC3CCCCC3)cc2Cl)c2ccccc12")
"> 7.30"
>>> reported_value("CCOC(=O)[C@H](Cc1ccc(O)cc1)NC(=O)c1ccc(NC(=O)CSc2nnc(Br)n2-c2ccc(C3CC3)c3ccccc23)c(Cl)c1")
"< 7.00"
>>> reported_value("CCc1ccc(-n2c(CF)nnc2SCC(=O)Nc2ccc(S(N)(=O)=O)cc2Cl)c2c1CCCC2")
"> 7.30"
>>> reported_value("COC(=O)[C@@H](NC(=O)c1ccc(NC(=O)CSc2nnc(Br)n2-c2ccc(C3CC3)c3ccccc23)c(Cl)c1)C(C)C")
"7.00 to 7.30"
>>> reported_value("O=C(O)CCNC(=O)c1ccc(NC(=O)CSc2nnc(Br)n2-c2ccc(C3CC3)c3ccccc23)c(Cl)c1")
"< 7.00"
>>> reported_value("CCc1ccc(-n2c(CF)nnc2SCC(=O)Nc2ccc(S(=O)(=O)NC)cc2Cl)c2ccccc12")
"7.00 to 7.30"
>>> reported_value("CCc1ccc(-n2c(CF)nnc2SCC(=O)Nc2ccc(C(=O)O)cc2Cl)c2ccccc12")
"< 7.00"
>>> reported_value("NS(=O)(=O)c1ccc(NC(=O)CSc2nnc(C(F)F)n2-c2ccc(C3CCCC3)c3ccccc23)c(Cl)c1 [compound 99]")
"< 7.00"
>>> reported_value("NS(=O)(=O)c1ccc(NC(=O)CSc2nnc(Cl)n2-c2ccc(C3CC3)c3ccccc23)c(Cl)c1")
"> 7.30"

* * *

measured on: wild-type HIV reverse transcriptase (Human immunodeficiency virus type 1 group M subtype B, UniProt P04585)
Construct: wild-type and four mutant HIV reverse transcriptases
experiment notes: Activity on wild type reverse transcriptase (Table 1 IC50 WT)
Format: biochemical
Quick list: IC50 per entry.
value type: IC50

>>> reported_value("CCc1ccc(-n2c(Br)nnc2SCC(=O)Nc2ccc(S(N)(=O)=O)cc2Br)c2ccccc12")
"< 50 nM"
>>> reported_value("CCc1ccc(-n2c(Br)nnc2SCC(=O)Nc2ccc(C(=O)NCC(C)(C)N)cc2Cl)c2ccccc12")
"< 50 nM"
>>> reported_value("Cc1cc(C(=O)O)ccc1NC(=O)CSc1nnc(C(F)F)n1-c1ccc(C)c2c1CCCC2")
"< 50 nM"
>>> reported_value("CCc1ccc(-n2c(CF)nnc2SCC(=O)Nc2ccc(S(=O)(=O)NC)cc2Cl)c2ccccc12")
"50 to 100 nM"
>>> reported_value("CCc1ccc(-n2c(Br)nnc2SCC(=O)Nc2ccc(C(=O)NCCN(C)C)cc2Cl)c2ccccc12")
"< 50 nM"
>>> reported_value("NS(=O)(=O)c1ccc(NC(=O)CSc2nnc(C(F)F)n2-c2ccc(C3CC3)c3ccccc23)c(Cl)c1")
"< 50 nM"
>>> reported_value("CCOC(=O)CCNC(=O)c1ccc(NC(=O)CSc2nnc(Br)n2-c2ccc(CC)c3ccccc23)c(Cl)c1")
"< 50 nM"
